Below is a list of entries, each paired with its recorded aptazyme ON/OFF ratio value.
B1: Pistol ribozyme (parent)
chain: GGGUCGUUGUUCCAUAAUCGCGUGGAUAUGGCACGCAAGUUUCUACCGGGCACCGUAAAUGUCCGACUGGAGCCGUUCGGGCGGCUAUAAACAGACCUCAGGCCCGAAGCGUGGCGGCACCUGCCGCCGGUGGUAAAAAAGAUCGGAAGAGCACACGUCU

# Variants of: B1
# assayInfo: aptazyme ON/OFF ratio, guanine; higher = stronger switching; co-transcriptional cleavage with and without guanine
When you answer, write just the number.

Request: What value of measured aptazyme ON/OFF ratio is listed for G9C U10G C12G C13G ?
Response: 1.14

Request: Returns the measured aptazyme ON/OFF ratio for the input variant. Input: G9C U10G U11G C12G C13A
Response: 1.1

Request: Please look up its aptazyme ON/OFF ratio: U7G U8C G9C U10C U11G C12G
Response: 1.06

Request: What value of aptazyme ON/OFF ratio has been reported for the following variant? U7A U8G U10C U11G C13A
Response: 1.23

Request: Request the reported aptazyme ON/OFF ratio associated with U7G G9A U10A C12G C13U
Response: 1.25

Others:
Request: Which value of aptazyme ON/OFF ratio has been reported for U7G U8C G9U U10C in the records?
Response: 1.64

Request: I'd like to know its aptazyme ON/OFF ratio. The variant in question is U7C U8A C12A C13U
Response: 1.39

Request: What value of aptazyme ON/OFF ratio has been recorded for this entry: U10A U11G
Response: 2.01

Request: Fill blank: measured aptazyme ON/OFF ratio of the variant U7G U8C G9C U10A U11C C13U is ____.
Response: 1.25

Request: Which aptazyme ON/OFF ratio is listed for U7A U8C G9C U10A U11G ?
Response: 1.11
